Recorded values, source the supplement of paper PMC10598134.

# run_description: collision cross section of modified peptide (TIMS, N2, iRT-aligned); higher = larger / more extended gas-phase ion
# condition_notes: charge state: 3; modification: Biotin
test_readout: collision cross section (Å²)
Enter your answer as a number in Å²; do not include the unit.

Answered examples (5):
{"sequence_code": "PASGAGAGAGAGKR [_PASGAGAGAGAGK(Biotin)R_]", "meas_value": 490.64}
{"sequence_code": "DSSPTTNSKLSALQR [_DSSPTTNSK(Biotin)LSALQR_]", "meas_value": 519.36}
{"sequence_code": "DAEAAEATAEGALKAEK [_DAEAAEATAEGALK(Biotin)AEK_]", "meas_value": 551.51}
{"sequence_code": "ASNAAVKLAESK [_ASNAAVK(Biotin)LAESK_]", "meas_value": 464.87}
{"sequence_code": "VLTANSNPSSPSAAKR [_VLTANSNPSSPSAAK(Biotin)R_]", "meas_value": 547.09}

Recorded collision cross section (sequence IISSIEQKEENK [_IISSIEQK(Biotin)EENK_] ): 481.73

Recorded collision cross section (sequence SSFAYKDQNENR [_SSFAYK(Biotin)DQNENR_] ): 490.01
